assay: SPR, peptide binding to LUVs immobilized on L1 chip; settings: SPR steady state analysis, DMPC LUVs on L1 chip, HEPES pH 7.4, room temperature; mean ± SD of triplicates
pKd: −log10 of the molar value. Non-standard residues stand in square brackets, D forms with d. Residues, ends and D or L forms follow the SMILES beside them.
OBSERVABLE: pKd

Examples with their reported pKd follow.
[[record]]
compound = "N=C(N)NCCC[C@@H]1NC(=O)[C@H](Cc2c[nH]c3ccccc23)NC(=O)[C@H](CCCNC(=N)N)NC(=O)[C@H](Cc2c[nH]c3ccccc23)NC(=O)[C@H](CCCNC(=N)N)NC(=O)[C@H](Cc2c[nH]c3ccccc23)NC1=O [compound 2] (cyclo(WRWRWR))"
observed_result = 3.50

[[record]]
compound = "NCCCC[C@@H]1NC(=O)[C@H](CCCCN)NC(=O)[C@H](Cc2c[nH]c3ccccc23)NC(=O)[C@H](Cc2c[nH]c3ccccc23)NC(=O)[C@H](Cc2c[nH]c3ccccc23)NC(=O)[C@H](CCCCN)NC1=O [compound 3] (cyclo(WWWKKK))"
observed_result = 3.52


1 = CC(C)C[C@@H]1NC(=O)[C@@H](CCCNC(=N)N)NC(=O)[C@H](CCCCN)NC(=O)[C@H](CC(N)=O)NC(=O)[C@@H](Cc2c[nH]c3ccccc23)NC(=O)[C@H](Cc2c[nH]c3ccccc23)NC1=O [compound 5] (cyclo(LW[dW]NK[dR]))
2 = N=C(N)NCCC[C@@H]1NC(=O)[C@H](CCCNC(=N)N)NC(=O)[C@H](Cc2c[nH]c3ccccc23)NC(=O)[C@H](Cc2c[nH]c3ccccc23)NC(=O)[C@H](Cc2c[nH]c3ccccc23)NC(=O)[C@H](CCCNC(=N)N)NC1=O [compound 1] (cyclo(WWWRRR))
3 = NCCCC[C@@H]1NC(=O)[C@H](Cc2c[nH]c3ccccc23)NC(=O)[C@H](CCCCN)NC(=O)[C@H](Cc2c[nH]c3ccccc23)NC(=O)[C@H](CCCCN)NC(=O)[C@H](Cc2c[nH]c3ccccc23)NC1=O [compound 4] (cyclo(WKWKWK))
Task: Ordering criterion: pKd; begin with the maximum. # list labels per requested ordering
Output: 2, 3, 1
(2: 3.85, 3: 3.15, 1: 2.59)

Value source: paper PMC10400562
